Data origin: patent US9962369B2

# ASSAY_PROTOCOL: Transdermal delivery of melatonin: plasma level of melatonin after applying composition to skin of a subject
# TEST_SETTINGS: human, plasma, topical, 3 mg, Plasma level of melatonin, Tryptophan butyl ester hydrochloride 235.90 mM, 0.3 mL applied to skin, 0 hr after transdermal administration
OBSERVATION_TYPE: concentration at 0 h

Request the reported concentration at 0 h associated with "COc1ccc2[nH]cc(CCNC(C)=O)c2c1" 0 ng/mL

====

# ASSAY_PROTOCOL: Transdermal delivery of melatonin: plasma level of melatonin after applying composition to skin of a subject
# TEST_SETTINGS: human, plasma, topical, Plasma level of melatonin, 2-(Dibutylamino)ethyl 2-acetoxybenzoate hydrochloride 188.23 mM, 0.375 mL applied to skin, 0 hr after transdermal administration
OBSERVATION_TYPE: concentration at 0 h
The reply should read as a number followed by its unit.

Request the reported concentration at 0 h associated with "COc1ccc2[nH]cc(CCNC(C)=O)c2c1" 0 ng/mL

====

# ASSAY_PROTOCOL: Transdermal delivery of melatonin: plasma level of melatonin after applying composition to skin of a subject
# TEST_SETTINGS: human, plasma, topical, 3 mg, Plasma level of melatonin, salt of tryptophan isopropyl ester, A− = AcO^−, 228.48 mM, 0.30 mL applied, 1 hr after transdermal administration
OBSERVATION_TYPE: concentration at 1 h (ng/mL)
// units = ng/mL; emit number, no label

Request the reported concentration at 1 h associated with "COc1ccc2[nH]cc(CCNC(C)=O)c2c1" 1.9

====

# ASSAY_PROTOCOL: Transdermal delivery of melatonin: plasma level of melatonin after applying composition to skin of a subject
# TEST_SETTINGS: human, plasma, topical, 3 mg, Plasma level of melatonin, Tyrosine pentyl ester 243.25 mM, 0.30 mL applied to skin, 1 hr after transdermal administration
OBSERVATION_TYPE: concentration at 1 hr (ng/mL)
// units = ng/mL; emit number, no label

Request the reported concentration at 1 hr associated with "COc1ccc2[nH]cc(CCNC(C)=O)c2c1" 1.8

====

# ASSAY_PROTOCOL: Transdermal delivery of melatonin: plasma level of melatonin after applying composition to skin of a subject
# TEST_SETTINGS: human, plasma, topical, 3 mg, Plasma level of melatonin, Phenylalanine octyl ester hydrochloride 223.02 mM, 0.60 mL applied to skin, 2 hr after transdermal administration
OBSERVATION_TYPE: concentration at 2 h (ng/mL)
// units = ng/mL; emit number, no label

Request the reported concentration at 2 h associated with COc1ccc2[nH]cc(CCNC(C)=O)c2c1 [Melatonin] 1.4

====

# ASSAY_PROTOCOL: Transdermal delivery of melatonin: plasma level of melatonin after applying composition to skin of a subject
# TEST_SETTINGS: human, plasma, topical, 3 mg, Plasma level of melatonin, salt of tryptophan isopropyl ester, A− = Br^−, 220.92 mM, 0.30 mL applied, 8 hr after transdermal administration
OBSERVATION_TYPE: concentration at 8 h (ng/mL)
// units = ng/mL; emit number, no label

Request the reported concentration at 8 h associated with "COc1ccc2[nH]cc(CCNC(C)=O)c2c1" 2.6

====

# ASSAY_PROTOCOL: Transdermal delivery of melatonin: plasma level of melatonin after applying composition to skin of a subject
# TEST_SETTINGS: human, plasma, topical, Plasma level of melatonin, 6-(Dimethylamino)hexyl 2-acetoxybenzoate hydrochloride 203.56 mM, 0.375 mL applied to skin, 8 hr after transdermal administration
OBSERVATION_TYPE: concentration at 8 h (ng/mL)
// units = ng/mL; emit number, no label

Request the reported concentration at 8 h associated with COc1ccc2[nH]cc(CCNC(C)=O)c2c1 [Melatonin] 1.9
